- system: Mu-type opioid receptor (Homo sapiens)
- Sequence (P35372 whole entry): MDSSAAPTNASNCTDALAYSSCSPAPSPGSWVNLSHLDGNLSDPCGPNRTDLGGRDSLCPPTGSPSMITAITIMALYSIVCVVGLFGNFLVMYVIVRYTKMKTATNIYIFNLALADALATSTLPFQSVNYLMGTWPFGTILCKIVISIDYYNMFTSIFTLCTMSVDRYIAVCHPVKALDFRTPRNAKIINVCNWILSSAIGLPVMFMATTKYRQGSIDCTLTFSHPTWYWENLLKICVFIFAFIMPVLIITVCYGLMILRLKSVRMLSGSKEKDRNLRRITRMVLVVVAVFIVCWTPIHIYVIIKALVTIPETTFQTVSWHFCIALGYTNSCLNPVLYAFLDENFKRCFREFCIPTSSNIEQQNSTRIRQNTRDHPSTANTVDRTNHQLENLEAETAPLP
- protocol-text: biochemical
- Description: In vitro binding affinity against cloned human Opioid receptor mu 1 expressed in HEK 293S cells
Recorded pIC50 for the following molecules
Formally, pIC50 is defined as -log10 of the concentration c, with c in mol/L.

Please review the entries below; each comes with its answer.
> print(dat)
                         chemical.structure  quantitative.result
1  C[C@@H]1[C@H]2c3cc(N4CCN(C)CC4)ccc3C[C@@H](c3ccc(N4CCN(C)CC4)cc32)N1CC1CC1                 6.16
2  C[C@@H]1[C@H]2c3cc(N4CCN(C)CC4)ccc3C[C@@H](c3ccc(N4CCN(C)CC4)cc32)N1C                 7.28
3  Brc1ccc2c(c1)[C@H]1c3cc(Br)ccc3[C@H](C2)N2CCC[C@@H]12                 6.30

Fill blank: measured pIC50 of the molecule Brc1ccc(CNc2ccc3c(c2)[C@H]2c4cc(NCc5ccc(Br)cc5)ccc4[C@H](C3)N3CCC[C@@H]23)cc1 is ____.
6.92
